Cited source for all entries: patent US4851416A

Subject of test: α1-receptors of the rat vas deferens (Rattus norvegicus, UniProt P43140)
Construct: from tissue; host or cells: rat vas deferens
Sequence (P43140 whole entry): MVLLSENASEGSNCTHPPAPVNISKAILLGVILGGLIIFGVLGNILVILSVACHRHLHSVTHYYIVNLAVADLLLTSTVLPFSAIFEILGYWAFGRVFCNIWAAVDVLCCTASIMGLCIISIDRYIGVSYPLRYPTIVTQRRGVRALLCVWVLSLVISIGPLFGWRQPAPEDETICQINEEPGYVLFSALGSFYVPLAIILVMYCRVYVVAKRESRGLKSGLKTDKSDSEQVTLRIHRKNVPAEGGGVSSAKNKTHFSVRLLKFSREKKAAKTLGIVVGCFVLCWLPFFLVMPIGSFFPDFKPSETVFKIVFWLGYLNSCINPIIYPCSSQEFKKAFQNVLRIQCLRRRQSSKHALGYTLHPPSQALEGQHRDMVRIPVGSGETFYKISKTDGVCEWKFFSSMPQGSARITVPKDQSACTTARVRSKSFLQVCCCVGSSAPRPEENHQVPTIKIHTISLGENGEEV
Experiment notes: Antagonism of α1-receptors of the rat vas deferens (phenylephrine as agonist)
Format: biochemical
Condition parameters: compounds of formula (I) as hydrochlorides, read-out: pA2 (α1, rat vas deferens) (converted)
This section presents molecules with their documented Kb values.
Write the number in nM without appending the unit.

Reference set (2 entries):
c1ccc2c(c1)OCC(C1=NCCN1)O2 (stereo not drawn) [Idazoxan, reference compound]
1000
CCOC(=O)C1C(O)CCC2CN3CCc4cc5c(cc4C3CC21)OCO5 (stereo not drawn)
3090

Alright, here's another molecule for you.
[in] Give the reported Kb for CCn1ccnc1CC1COc2ccccc2O1 (stereo not drawn) [Imiloxan, reference compound] (system: α1-receptors of the rat vas deferens (Rattus norvegicus, UniProt P43140)).
[out] 52.5

---

This section presents compounds with their documented pA2 (α1, pulmonary artery of rabbit) values.
Subject of test: α1-receptors of the pulmonary artery of rabbit
Experiment notes: Antagonism of α1-receptors of the pulmonary artery of rabbit (norepinephrine as agonist)
Assay type: biochemical
Condition parameters: compounds of formula (I) as hydrochlorides
API doc: respond with a numeric literal and nothing else, no unit.

Reference set (3 entries):
O[C@H]1CC[C@H]2CN3CCc4cc5c(cc4[C@H]3C[C@H]2C1)OCO5 (relative stereo) [Example 25, 14β-hydroxy-7,8-methylenedioxyalloberban]
4.83
c1ccc2c(c1)OCC(C1=NCCN1)O2 (stereo not shown) [Idazoxan, reference compound]
6.03
COC(=O)[C@@H]1[C@H]2C[C@H]3c4[nH]c5ccccc5c4CCN3C[C@@H]2CC[C@@H]1O [Yohimbine, reference compound]
5.81

Alright, here's another compound for you.
[in] GET /values?readout=pA2 (α1, pulmonary artery of rabbit)&item= O[C@@H]1CC[C@H]2CN3CCc4cc5c(cc4[C@H]3C[C@H]2C1)OCO5 (relative stereo) [Example 26, 14α-hydroxy-7,8-methylenedioxyalloberban]
[out] 5.29
